Record form. Attribute: IC50. Fill in for each entry.
Molecular target: recombinant human AChE (Homo sapiens, UniProt P22303)
Sequence (P22303 32-614): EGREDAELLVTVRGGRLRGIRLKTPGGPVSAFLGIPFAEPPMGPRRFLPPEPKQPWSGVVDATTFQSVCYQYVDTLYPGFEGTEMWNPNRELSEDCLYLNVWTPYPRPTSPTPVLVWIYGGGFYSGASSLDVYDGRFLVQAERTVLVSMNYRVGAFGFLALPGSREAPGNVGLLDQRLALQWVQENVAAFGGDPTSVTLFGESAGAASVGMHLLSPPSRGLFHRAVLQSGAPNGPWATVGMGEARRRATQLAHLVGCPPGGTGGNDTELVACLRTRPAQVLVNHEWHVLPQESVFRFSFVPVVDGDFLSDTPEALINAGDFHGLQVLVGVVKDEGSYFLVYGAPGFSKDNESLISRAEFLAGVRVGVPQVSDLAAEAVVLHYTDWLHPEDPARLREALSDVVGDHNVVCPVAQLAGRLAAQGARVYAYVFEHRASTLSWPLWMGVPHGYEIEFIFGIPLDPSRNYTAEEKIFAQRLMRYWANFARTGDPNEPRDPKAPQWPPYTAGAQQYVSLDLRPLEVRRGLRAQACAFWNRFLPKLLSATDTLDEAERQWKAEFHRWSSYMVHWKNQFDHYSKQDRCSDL
Test: biochemical
One number for each entry, in µM.

{"compound": "Cc1c(Cl)c(=O)oc2cc(OP(=O)(OCCCl)OCCCl)ccc12 [Haloxon]", "measured-target": "recombinant human AChE (Homo sapiens, UniProt P22303)", "unit-name": "µM", "endpoint-result": 0.32}

Now consider the entry below.
## Task What does the data say about its IC50? Entry: Cc1c[nH]c2ncnc(N3CCC(CN)(C(=O)Nc4cccc(OC(=O)N(C)C)c4)CC3)c12 [LX-7101]
## Result 7.71

----------
Molecular target: recombinant human AChE (Homo sapiens)
Experiment: biochemical
Format: biochemical
Where a name gives a salt, the structure may show the parent alone.
parameter: AChE, IC50

Before answering, review these 6 worked examples.
{"compound": "COc1ccc(CN(C(=O)[C@@H](N)Cc2c(C)cc(C(N)=O)cc2C)[C@@H](C)c2ncc(-c3ccccc3)[nH]2)cc1C(=O)O", "AChE, IC50": "Inactive"}
{"compound": "CCCCn1c(-c2ccccc2)nc(-c2ccccc2)c1CN(Cc1ccc2c(c1)OCO2)Cc1ccc2c(c1)OCO2", "AChE, IC50": "Inactive"}
{"compound": "COc1cc(O)ccc1OCCNCC(O)COc1cccc2[nH]c3ccccc3c12 (stereo not shown) [4-hydroxyphenyl carvedilol]", "AChE, IC50": "Inactive"}
{"compound": "CC(C)OC(=O)C1=CN(C(=O)c2ccc(F)c(F)c2)CC(C)(C)c2c1[nH]c1ccccc21 [Turofexorate isopropyl]", "AChE, IC50": "Inactive"}
{"compound": "O=c1nc(-c2ccccn2)sc2ccccc12", "AChE, IC50": "Inactive"}
{"compound": "CCN(CCCc1ccccc1)CCCc1ccccc1 [Alverine citrate]", "AChE, IC50": "Inactive"}

Hi there! I need AChE, IC50 for each item below, if you can.
1. CN(C)C(=O)Oc1cc(OC(=O)N(C)C)cc(C(O)CNC(C)(C)C)c1 (stereo not shown) [Bambuterol hydrochloride]
2. O=C(CN1CCN(Cc2ccc3c(c2)OCO3)CC1)N1c2ccccc2Sc2ccccc21
3. N#CC(c1ccnc(OCc2ccc(CN3CCOCC3)cc2)n1)c1nc2ccccc2s1 (stereo not shown)

## Result
1. Inactive
2. Inactive
3. Inactive

## Task What does the data say about its AChE, IC50? Entry: `CN1CCc2cc(Cl)c(O)cc2[C@@H](c2cccc3c2OCC3)C1`
## Result Inactive

----------
Molecular target: recombinant human AChE (Homo sapiens)
Experiment: biochemical
Format: biochemical
Conditions: read-out: AChE, % Efficacy
parameter: Emax (%)
Give bare numbers, in %.

Before answering, review these 4 worked examples.
{"compound": "Cc1c(Cl)c(=O)oc2cc(OP(=O)(OCCCl)OCCCl)ccc12 [Haloxon]", "Emax, %": -101}
{"compound": "Cc1c[nH]c2ncnc(N3CCC(CN)(C(=O)Nc4cccc(OC(=O)N(C)C)c4)CC3)c12 [LX-7101]", "Emax, %": -92.4}
{"compound": "CNC(=O)Oc1ccc2c(c1)[C@]1(C)CCN(C)[C@@H]1N2C [Physostigmine]", "Emax, %": -103}
{"compound": "CCCCCCCCCCC[C@@H](C[C@@H]1OC(=O)[C@H]1CCCCCC)OC(=O)[C@H](CC(C)C)NC=O [Orlistat]", "Emax, %": -80.5}

Now consider the entry below.
## Task What does the data say about its Emax? Entry: CN(C)C(=O)Oc1cccc([N+](C)(C)C)c1 [Neostigmine bromide]
## Result -94.6

----------
Target: Recombinant human BChE (Homo sapiens, UniProt P06276)
Sequence (P06276 29-602): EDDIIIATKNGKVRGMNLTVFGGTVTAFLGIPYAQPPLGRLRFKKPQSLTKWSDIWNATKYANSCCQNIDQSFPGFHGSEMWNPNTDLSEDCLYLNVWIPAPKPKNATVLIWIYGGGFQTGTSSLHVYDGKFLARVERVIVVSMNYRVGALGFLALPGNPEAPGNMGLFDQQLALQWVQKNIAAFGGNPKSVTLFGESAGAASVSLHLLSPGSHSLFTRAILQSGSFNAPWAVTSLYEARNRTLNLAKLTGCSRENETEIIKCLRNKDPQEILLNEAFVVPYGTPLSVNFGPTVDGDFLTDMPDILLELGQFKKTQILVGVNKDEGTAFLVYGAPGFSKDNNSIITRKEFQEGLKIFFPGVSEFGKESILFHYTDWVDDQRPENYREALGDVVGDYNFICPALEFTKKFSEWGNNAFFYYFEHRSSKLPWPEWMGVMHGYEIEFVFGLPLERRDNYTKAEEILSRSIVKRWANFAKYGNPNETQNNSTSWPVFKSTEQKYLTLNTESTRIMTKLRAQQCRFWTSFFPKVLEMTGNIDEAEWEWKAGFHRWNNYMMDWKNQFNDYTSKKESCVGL
Experiment: biochemical
Details: BChE, IC50
Counter-ions that a name gives are not always drawn.
Record form. Attribute: pIC50. Fill in for each entry.
One number for each entry, as −log10 of the molar value.

{"compound": "CC(C)OC(=O)C1=CN(C(=O)c2ccc(F)c(F)c2)CC(C)(C)c2c1[nH]c1ccccc21 [Turofexorate isopropyl]", "pIC50": 6.54}

Hi there! I need pIC50 for each item below, if you can.
1. CN(C)C(=O)Oc1cccc([N+](C)(C)C)c1 [Neostigmine bromide]
2. Cc1c(Cl)c(=O)oc2cc(OP(=O)(OCCCl)OCCCl)ccc12
3. O=C(CN1CCN(Cc2ccc3c(c2)OCO3)CC1)N1c2ccccc2Sc2ccccc21
4. CCN(CCCc1ccccc1)CCCc1ccccc1 [Alverine citrate]
5. Nc1c2ccccc2nc2ccccc12
6. COc1ccc(CN(C(=O)[C@@H](N)Cc2c(C)cc(C(N)=O)cc2C)[C@@H](C)c2ncc(-c3ccccc3)[nH]2)cc1C(=O)O
7. N#CC(c1ccnc(OCc2ccc(CN3CCOCC3)cc2)n1)c1nc2ccccc2s1 (stereo not shown)
8. CN(C)C(=O)Oc1cc(OC(=O)N(C)C)cc(C(O)CNC(C)(C)C)c1 (stereo not shown) [Bambuterol hydrochloride]

## Result
6.05
7.52
7.05
6.42
6.80
6.47
6.48
7.52

Hi there! I need pIC50 for each item below, if you can.
1. CCCCCCCCCCC[C@@H](C[C@@H]1OC(=O)[C@H]1CCCCCC)OC(=O)[C@H](CC(C)C)NC=O
2. CCN(CC)C(C)CN1c2ccccc2Sc2ccccc21 (stereo not shown) [ethopropazine hydrochloride, Ethopropazine hydrochloride]
3. CCCCn1c(-c2ccccc2)nc(-c2ccccc2)c1CN(Cc1ccc2c(c1)OCO2)Cc1ccc2c(c1)OCO2
4. Cc1c[nH]c2ncnc(N3CCC(CN)(C(=O)Nc4cccc(OC(=O)N(C)C)c4)CC3)c12

## Result
[6.92, 5.77, 6.68, 6.66]

----------
Molecular target: Recombinant human BChE (Homo sapiens, UniProt P06276)
Experiment: biochemical
Settings: read-out: BChE, % Efficacy
Where a name gives a salt, the structure may show the parent alone.
parameter: Emax (%)
One number for each entry, in %.

Hi there! I need Emax for each item below, if you can.
1. O=C(CN1CCN(Cc2ccc3c(c2)OCO3)CC1)N1c2ccccc2Sc2ccccc21 [Fenoverine]
2. CNC(=O)Oc1ccc2c(c1)[C@]1(C)CCN(C)[C@@H]1N2C [Physostigmine]
3. Nc1c2ccccc2nc2ccccc12
4. COc1ccc(CN(C(=O)[C@@H](N)Cc2c(C)cc(C(N)=O)cc2C)[C@@H](C)c2ncc(-c3ccccc3)[nH]2)cc1C(=O)O [Eluxadoline]
5. CN(C)C(=O)Oc1cc(OC(=O)N(C)C)cc(C(O)CNC(C)(C)C)c1 (stereo not shown) [Bambuterol hydrochloride]
6. CCCCCCCCCCC[C@@H](C[C@@H]1OC(=O)[C@H]1CCCCCC)OC(=O)[C@H](CC(C)C)NC=O [Orlistat]

## Result
1. -97.3
2. -98.4
3. -101
4. -100
5. -91.4
6. -92.9

Hi there! I need Emax for each item below, if you can.
1. Cc1c(Cl)c(=O)oc2cc(OP(=O)(OCCCl)OCCCl)ccc12 [Haloxon]
2. N#CC(c1ccnc(OCc2ccc(CN3CCOCC3)cc2)n1)c1nc2ccccc2s1 (stereo not shown) [Bentamapimod]
3. CCCCn1c(-c2ccccc2)nc(-c2ccccc2)c1CN(Cc1ccc2c(c1)OCO2)Cc1ccc2c(c1)OCO2 [NDT 9513727]
4. CC(C)OC(=O)C1=CN(C(=O)c2ccc(F)c(F)c2)CC(C)(C)c2c1[nH]c1ccccc21 [Turofexorate isopropyl]
5. CN(C)C(=O)Oc1cccc([N+](C)(C)C)c1 [Neostigmine bromide]

## Result
-91.2
-98.8
-101
-98.5
-102

Hi there! I need Emax for each item below, if you can.
1. Cc1c[nH]c2ncnc(N3CCC(CN)(C(=O)Nc4cccc(OC(=O)N(C)C)c4)CC3)c12 [LX-7101]
2. CCN(CCCc1ccccc1)CCCc1ccccc1 [Alverine citrate]

## Result
1. -96.6
2. -95
